- assay_name: chemical genetic growth profiling, strain panel (AID 1159580);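 also: tested at 20 µM; growth read once vehicle control cultures reached saturation at 30 °C; 1 = growth at the plate median or of vehicle wells; lower values mean less growth of the strain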
- conditions: S. cerevisiae deletion strains, growth OD, locus YMR058W, strain fet3, hits give low values
Hit rate of the full screen: of about 5,500 compounds, about 2,000 (36%) were called active. Not shown: some 18% with an inconclusive outcome. Some of the results follow.
parameter_measured: normalized growth
# output: bare number, no unit

COc1ccc2nc(S(=O)Cc3ncc(C)c(OC)c3C)[nH]c2c1 (centres undefined) :: 0.999

## Input Query: normalized growth; subject: CCN1C[C@@]2(COC)C3[C@@H](OC)[C@H]4[C@@H]1[C@]3(C(OC)C[C@H]2O)C1C[C@@]2(O)[C@H](OC(=O)c3ccccc3)C1[C@]4(OC(C)=O)[C@@H](O)[C@@H]2OC (some centres undefined)
## Output 1.01

## Input Query: normalized growth; subject: COc1ccnc(CS(=O)c2nc3ccc(OC(F)F)cc3[nH]2)c1OC (centres undefined)
## Output 1.04

## Input Query: normalized growth; subject: O=c1[nH]c(=O)n(C2C[C@H](O)[C@@H](CO)O2)cc1C(F)(F)F (some centres undefined)
## Output 0.952

----------
- assay_name: chemical genetic growth profiling, strain panel (AID 1159580)
- conditions: S. cerevisiae deletion strains, growth OD, locus YMR058W, strain fet3, hits give low values
In all, about 5,500 compounds went through this assay and about 2,000 (36%) were called active. Not shown: some 18% with an inconclusive outcome. The list shows a part of the results.
parameter_measured: normalized growth

Some solved entries appear below for comparison.
O=c1oc2ccccc2cc1O :: 0.984 (inactive)
CC1(C)C(=O)[C@@H]2O[C@@H]2[C@@]2(C)C1C[C@@H](O)[C@]1(C)C2CC[C@@]2(C)[C@H](c3ccoc3)OC(=O)C3OC321 (some centres not stated) :: 1 (inactive)
CC(=O)O[C@H]1CC[C@@]2(C)C(C[C@@H](OC(C)=O)[C@]3(C)C2CC[C@@]2(C)[C@H](c4ccoc4)OC(=O)[C@H]4O[C@]423)C1(C)C (some centres not stated) :: 1 (inactive)
CC(=O)O[C@@H]1CC2C(C)(C)[C@H](O)C=C[C@]2(C)C2CC[C@@]3(C)[C@H](c4ccoc4)OC(=O)C4OC43[C@@]21C (some centres not stated) :: 1.02 (inactive)
CC(=O)O[C@@H]1CC2C(C)(C)[C@@H](O)CC[C@]2(C)C2CC[C@@]3(C)[C@H](c4ccoc4)OC(=O)[C@H]4O[C@]43[C@@]21C (some centres not stated) :: 1.01 (inactive)
CC(=O)O[C@H]1C[C@@H](OC(C)=O)C(C)(C)C2C[C@@H](O)[C@]3(C)C(CC[C@@]4(C)[C@H](c5ccoc5)OC(=O)[C@H]5O[C@]543)[C@]21C (some centres not stated) :: 0.999 (inactive)

Please examine the following record next.
## Input Query: normalized growth; subject: `Cc1cc(/C=C/c2ccc3cc(N(C)C)ccc3[n+]2C)c(C)n1-c1ccccc1`
## Output 0.863 (active)

----------
- assay_name: chemical genetic growth profiling, strain panel (AID 1159580)
- conditions: S. cerevisiae deletion strains, growth OD, locus YDR101C, strain arx1, hits give low values
Among all 5,500 compounds or so, about 2,000 (36%) were called active. Inconclusive results (about 18%) are left out. The list shows a part of the results.
parameter_measured: normalized growth

c1ccc2c(CC3=NCCN3)cccc2c1 :: 1.02 (inactive)
NC1(C(=O)O)CC1 :: 1 (inactive)

Please examine the following record next.
## Input Query: normalized growth; subject: `NC1(C(=O)O)CCC1`
## Output 0.966 (inactive)

----------
- assay_name: chemical genetic growth profiling, strain panel (AID 1159580)
- conditions: S. cerevisiae deletion strains, growth OD, locus YOR265W, strain rbl2, hits give low values
Hit rate of the full screen: of about 5,500 compounds, about 2,000 (36%) were called active. Inconclusive results (about 18%) are left out. This is one part of the list.
Here, each record is paired with measured normalized growth data.
# output: bare number, no unit

N[C@@H](C(=O)O)[C@@H](O)[C@H](O)[C@H](O)CO :: 1.02
CN(C)C(=O)Oc1ccc[n+](C)c1 :: 1.01
Clc1ccc(COC(Cn2ccnc2)c2ccc(Cl)cc2Cl)cc1 (centres undefined) :: 0.0574
Cc1cccc(C)c1NC(=O)C1CCCCN1C (centres undefined) :: 1
O=c1cccc2n1CC1CC2CN2CCCC[C@@H]12 (some centres undefined) :: 0.968

## Input Query: normalized growth; subject: `C=C1C(=O)[C@]23[C@H](O)[C@H]1CC[C@H]2[C@@]12CO[C@]3(O)[C@H](O)[C@@H]1C(C)(C)CC[C@@H]2O`
## Output 0.984

## Input Query: normalized growth; subject: `Clc1ccc(CO/N=C(/Cn2ccnc2)c2ccc(Cl)cc2Cl)c(Cl)c1`
## Output 0.0668

## Input Query: normalized growth; subject: C=NC(C(=O)NC1C(=O)N2C1SC(C)(C)C2C(=O)O)c1ccccc1 (centres undefined)
## Output 1

## Input Query: normalized growth; subject: Clc1ccc(C(Cn2ccnc2)OCc2ccsc2Cl)c(Cl)c1 (centres undefined)
## Output 0.0575

## Input Query: normalized growth; subject: `COc1cc(NS(C)(=O)=O)ccc1Cc1c2ccccc2nc2ccccc12`
## Output 0.985

## Input Query: normalized growth; subject: C=C[C@@]1(C)CC(=O)[C@@]2(O)[C@](C)(O1)[C@@H](OC(C)=O)[C@@H](O)C1C(C)(C)CC[C@H](O)[C@@]12C (some centres undefined)
## Output 0.988

## Input Query: normalized growth; subject: Clc1ccc(CSC(Cn2ccnc2)c2ccc(Cl)cc2Cl)cc1 (centres undefined)
## Output 0.0591

----------
- assay_name: chemical genetic growth profiling, strain panel (AID 1159580);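 also: tested at 20 µM; growth read once vehicle control cultures reached saturation at 30 °C; 1 = growth at the plate median or of vehicle wells; lower values mean less growth of the strain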
- conditions: S. cerevisiae deletion strains, growth OD, locus YLR258W, strain gsy2, hits give low values
About 2,000 (36%) of roughly 5,500 compounds were called active. Not shown: some 18% with an inconclusive outcome. The list shows a part of the results. Where a SMILES comes first, the peptide text is derived from it.
parameter_measured: normalized growth
# output: bare number, no unit

Some solved entries appear below for comparison.
COc1ccc(-c2oc3cc(OC)c(OC)c(OC)c3c(=O)c2OC)cc1OC :: 0.994
CC(=O)N[C@@H](CCC(=O)O)C(=O)O :: 1.03
CC(=O)N[C@@H](CC(=O)O)C(=O)N[C@@H](CCC(=O)O)C(=O)O (Ac-Asp-Glu-OH) :: 0.992
NC(=O)CS(=O)C(c1ccccc1)c1ccccc1 (stereo unspecified) :: 1.03
COc1ccc(-c2oc3cc(OC)c(OC)c(OC)c3c(=O)c2OC)cc1 :: 0.967

## Input Query: normalized growth; subject: `C[C@H]1C[C@@H](O)[C@]2(O)[C@@]13CC(=O)OC[C@@]2(C)[C@](C)(O)C(=O)C3`
## Output 1.02

----------
- assay_name: chemical genetic growth profiling, strain panel (AID 1159580);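 also: tested at 20 µM; growth read once vehicle control cultures reached saturation at 30 °C; 1 = growth at the plate median or of vehicle wells; lower values mean less growth of the strain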
- conditions: S. cerevisiae deletion strains, growth OD, locus YDR334W, strain swr1, hits give low values
The campaign covered roughly 5,500 compounds. About 2,000 (36%) were called active. About 18% were inconclusive and are not listed. The list shows a part of the results.
parameter_measured: normalized growth
# output: bare number, no unit

CCCCC(=O)O[C@]1(C(=O)CO)CCC2C3CCC4=CC(=O)CC[C@]4(C)C3[C@@H](O)C[C@@]21C (stereo not given in full) :: 0.947
O=C(O)CCC1NCC2CC1CN1CCCCC21 (stereo not given) :: 0.931
NC(=O)CS(=O)C(c1ccccc1)c1ccccc1 (stereo not given) :: 1

## Input Query: normalized growth; subject: CCN1C[C@@]2(COC)C3[C@@H](OC)[C@H]4[C@@H]1[C@]3(C(OC)C[C@H]2O)C1C[C@@]2(O)[C@H](OC(=O)c3ccccc3)C1[C@]4(OC(C)=O)[C@@H](O)[C@@H]2OC (stereo not given in full)
## Output 1.02

## Input Query: normalized growth; subject: `NC1(C(=O)O)CCCC1`
## Output 1.01

----------
- assay_name: chemical genetic growth profiling, strain panel (AID 1159580);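 also: tested at 20 µM; growth read once vehicle control cultures reached saturation at 30 °C; 1 = growth at the plate median or of vehicle wells; lower values mean less growth of the strain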
- conditions: S. cerevisiae deletion strains, growth OD, locus YJL129C, strain trk1, hits give low values
About 2,000 (36%) of roughly 5,500 compounds were called active. Roughly 18% stayed inconclusive and do not appear here. The list shows a part of the results.
Here, each record is paired with measured normalized growth data.
# output: bare number, no unit

Some solved entries appear below for comparison.
Clc1ccc(C(c2ccccc2Cl)C(Cl)Cl)cc1 (configuration not stated) :: 0.828
C=C[C@@]1(C)CC(=O)[C@@]2(O)[C@](C)(O1)[C@@H](OC(C)=O)[C@@H](O)C1C(C)(C)CC[C@H](O)[C@@]12C (some centres not stated) :: 0.954
NC(=O)NC1NC(=O)NC1=O (configuration not stated) :: 0.997
COC(=O)[C@H](c1ccccc1Cl)N1CCc2sccc2C1 :: 0.959
CC[C@@H]1OC(=O)C[C@@H](O)[C@H](C)[C@@H](O[C@@H]2O[C@H](C)[C@@H](O)[C@H](N(C)C)[C@H]2O)[C@@H](CCN2C[C@H](C)C[C@H](C)C2)C[C@@H](C)C(=O)/C=C/C(C)=C\[C@@H]1CO[C@@H]1O[C@H](C)[C@@H](O)[C@@H](OC)[C@H]1OC :: 1

## Input Query: normalized growth; subject: `Clc1ccccc1CN1CCc2sccc2C1`
## Output 0.973

## Input Query: normalized growth; subject: C[C@@H]1CC2C3CCC4=CC(=O)C=C[C@]4(C)[C@@]3(F)[C@@H](O)C[C@]2(C)[C@@]1(O)C(=O)CO (some centres not stated)
## Output 0.976

Attribution: PubChem BioAssay AID1159580
